assay: Pharmacokinetics of AT and NT in healthy volunteers after a single dose of 25 mg amitriptyline; assay type: in vivo, human; conditions: both sexes, human, plasma, po, 25 mg, healthy volunteers, single oral 25 mg AT; CYP2D6 activity 2.5 (n = 1); mean
observed.property: Tmax (h)
Give bare numbers, in h.

CN(C)CCC=C1c2ccccc2CCc2ccccc21 ... 6

[ask] Dear colleague, I am looking for the recorded Tmax of the following molecule: `CNCCC=C1c2ccccc2CCc2ccccc21`
[reply] 6

* * *

test: Pharmacokinetics of AT and NT in healthy volunteers after a single dose of 25 mg amitriptyline; assay type: in vivo, human; details: both sexes, human, plasma, po, 25 mg, healthy volunteers, single oral 25 mg AT, plasma; CYP2C19 activity score 2 (n = 16); mean; read-out: AUCinf
observed.property: AUC(0-inf) (ng·h/mL)
One number for each entry, in ng·h/mL.

[ask] Dear colleague, I am looking for the recorded AUC(0-inf) of the following compound: `CN(C)CCC=C1c2ccccc2CCc2ccccc21`
[reply] 210

* * *

assay: Pharmacokinetics of AT and NT in healthy volunteers after a single dose of 25 mg amitriptyline; type: in vivo, human; settings: both sexes, human, plasma, po, 25 mg, healthy volunteers, single oral 25 mg AT; read-out: average Cmax (average peak plasma concentration)
observed.property: Cmax (ng/mL)
Give bare numbers, in ng/mL.

[ask] Dear colleague, I am looking for the recorded Cmax of the following molecule: `CN(C)CCC=C1c2ccccc2CCc2ccccc21`
[reply] 10.7

* * *

assay: Pharmacokinetics of AT and NT in healthy volunteers after a single dose of 25 mg amitriptyline; type: in vivo, human; settings: both sexes, human, plasma, po, 25 mg, healthy volunteers, single oral 25 mg AT, plasma; 1 active OCT1 allele (n = 9); read-out: AUCinf
observed.property: AUC(0-inf) (ng·h/mL)
Answers are plain numbers, in ng·h/mL.

[ask] Dear colleague, I am looking for the recorded AUC(0-inf) of the following compound: CN(C)CCC=C1c2ccccc2CCc2ccccc21 [Amitriptyline, amitriptyline]
[reply] 228

* * *

assay: Pharmacokinetics of AT and NT in healthy volunteers after a single dose of 25 mg amitriptyline; type: in vivo, human; conditions: both sexes, human, plasma, po, 25 mg, healthy volunteers, single oral 25 mg AT, plasma; CYP2D6 activity 1.5 (n = 6); mean; read-out: AUCinf
observed.property: AUC(0-inf) (ng·h/mL)
Give bare numbers, in ng·h/mL.

[ask] Dear colleague, I am looking for the recorded AUC(0-inf) of the following molecule: `CN(C)CCC=C1c2ccccc2CCc2ccccc21`
[reply] 226

* * *

test: Pharmacokinetics of AT and NT in healthy volunteers after a single dose of 25 mg amitriptyline; type: in vivo, human; conditions: both sexes, human, plasma, po, 25 mg, healthy volunteers, single oral 25 mg AT; OCT1 genotype *2 / *2 (n 3); mean ± standard deviation; read-out: AUCinf
observed.property: AUC(0-inf) (ng·h/mL)
Answers are plain numbers, in ng·h/mL.

[ask] Dear colleague, I am looking for the recorded AUC(0-inf) of the following compound: CN(C)CCC=C1c2ccccc2CCc2ccccc21 [Amitriptyline, amitriptyline]
[reply] 202

* * *

For each of the compounds below, state its Cmax.
experiment: Pharmacokinetics of AT and NT in healthy volunteers after a single dose of 25 mg amitriptyline; type: in vivo, human; details: both sexes, human, plasma, po, 25 mg, healthy volunteers, single oral 25 mg AT, plasma; CYP2D6 activity 1.5 (n = 6); mean; read-out: Cmax
One number for each entry, in ng/mL.

CNCCC=C1c2ccccc2CCc2ccccc21 [Nortriptyline, nortriptyline] ... 2.79

[ask] Dear colleague, I am looking for the recorded Cmax of the following compound: CN(C)CCC=C1c2ccccc2CCc2ccccc21 [Amitriptyline, amitriptyline]
[reply] 10.3
